- system.name: glucagon receptor (GCGR) (human, UniProt P47871 26-477)
- Sequence (P47871 26-477): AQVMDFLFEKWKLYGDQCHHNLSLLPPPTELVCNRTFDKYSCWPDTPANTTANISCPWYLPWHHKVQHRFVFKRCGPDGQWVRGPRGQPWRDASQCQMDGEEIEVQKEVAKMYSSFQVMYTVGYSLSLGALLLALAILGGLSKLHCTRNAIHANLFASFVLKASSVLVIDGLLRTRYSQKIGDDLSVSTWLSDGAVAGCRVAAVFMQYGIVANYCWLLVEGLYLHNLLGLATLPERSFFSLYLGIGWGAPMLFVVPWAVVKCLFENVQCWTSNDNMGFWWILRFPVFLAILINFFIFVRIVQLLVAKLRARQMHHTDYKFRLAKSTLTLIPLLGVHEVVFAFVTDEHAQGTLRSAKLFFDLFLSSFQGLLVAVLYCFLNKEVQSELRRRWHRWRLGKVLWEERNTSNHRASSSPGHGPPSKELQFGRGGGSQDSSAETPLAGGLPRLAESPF
- test.method.notes: cell-based or functional assay
Starred links: 1 amine or outer side, 2 acyl side, 3 side chain; linkers in the order of their positions; H or OH if unused. Non-standard residues stand in square brackets, D forms with d. Groups on a side chain read outwards from the residue. Primed or numbered codes have the meaning given here. No end group written: not given here. *: point of attachment. Dodecanoyl(12-OPh(4-COOH)) = O=C(O)c1ccc(OCCCCCCCCCCCC(=O)*)cc1; γGlu = O=C(O)[C@H](CCC(=O)[*:2])N[*:1]; Stearoyl = CCCCCCCCCCCCCCCCCC(=O)*; αMeF = C[C@](N)(Cc1ccccc1)C(=O)O; αMeK = C[C@](N)(CCCCN)C(=O)O; Lauroyl = CCCCCCCCCCCC(=O)*; αMeS = C[C@](N)(CO)C(=O)O; PEG2′ = not defined here; Aib = CC(C)(N)C(=O)O
property.measured: cAMP Primary assay EC50 Gluc-R (2nd)
Put down the number, then write its unit next to it.

Ask | Identify the reported cAMP Primary assay EC50 Gluc-R (2nd) for the following entry. H[Aib]EGS[αMeF]TSDV[αMeS]S[αMeF]LEGEAA[αMeK]E[αMeF]K([PEG2′-PEG2′-γGlu-Stearoyl])A[αMeF]VV[αMeK]GG-NH2 [SEQ ID NO 106]
Reply | 25.3 nM

Ask | Name the recorded cAMP Primary assay EC50 Gluc-R (2nd) of the binder listed here: H[Aib]EGS[αMeF]TSDV[αMeS]S[αMeF]LEGEAAK([PEG2′-PEG2′-Lauroyl])E[αMeF]IA[αMeF]VV[αMeK]GG-NH2 [SEQ ID NO 135]
Reply | 27 nM

Ask | Return cAMP Primary assay EC50 Gluc-R (2nd) (reported value) for this binder: H[Aib]EGS[αMeF]TSDV[αMeS]S[αMeF]LEGEAA[αMeK]E[αMeF]IAK([PEG2′-PEG2′-γGlu-Stearoyl])VV[αMeK]GG-NH2 [SEQ ID NO 104]
Reply | 25.6 nM

Ask | Kindly indicate its recorded cAMP Primary assay EC50 Gluc-R (2nd). Item: H[Aib]EGS[αMeF]TSDV[αMeS]S[αMeF]LEGEAAK([PEG2′-Dodecanoyl(12-OPh(4-COOH))])E[αMeF]IA[αMeF]VV[αMeK]GG-NH2 [SEQ ID NO 143]
Reply | 27 nM

Ask | Report measured cAMP Primary assay EC50 Gluc-R (2nd); entry is H[Aib]EGS[αMeF]TSDV[αMeS]K([PEG2′-PEG2′-γGlu-Stearoyl])[αMeF]LEGEAA[αMeK]E[αMeF]IA[αMeF]VV[αMeK]GG-NH2 [SEQ ID NO 117]
Reply | 25.1 nM

Ask | Fill in reported cAMP Primary assay EC50 Gluc-R (2nd) for this entry: H[Aib]EGS[αMeF]K([PEG2′-PEG2′-γGlu-Stearoyl])SDV[αMeS]S[αMeF]LEGEAA[αMeK]E[αMeF]IA[αMeF]VV[αMeK]GG-NH2 [SEQ ID NO 122]
Reply | 25.2 nM

Ask | Provide one value: measured cAMP Primary assay EC50 Gluc-R (2nd) of H[Aib]EGS[αMeF]TSDV[αMeS]S[αMeF]LEGEAA[αMeK]E[αMeF]IA[αMeF]VV[αMeK]K([PEG2′-PEG2′-γGlu-Stearoyl])G-NH2 [SEQ ID NO 100]
Reply | 24.9 nM

Ask | Identify measured cAMP Primary assay EC50 Gluc-R (2nd) corresponding to H[Aib]EGS[αMeF]TSDV[αMeS]S[αMeF]LEGEAAK([PEG2′-PEG2′-Dodecanoyl(12-OPh(4-COOH))])E[αMeF]IA[αMeF]VV[αMeK]GG-NH2 [SEQ ID NO 144]
Reply | 26 nM

Ask | Report cAMP Primary assay EC50 Gluc-R (2nd), nothing else, for this binder: H[Aib]EGS[αMeF]TSDV[αMeS]SK([PEG2′-PEG2′-γGlu-Stearoyl])LEGEAA[αMeK]E[αMeF]IA[αMeF]VV[αMeK]GG-NH2 [SEQ ID NO 116]
Reply | 25.6 nM

Where these numbers come from: patent US20200079833A1
